Target: T1, sIL-6R (soluble IL-6 receptor; SBH Sciences) (human, UniProt P08887 20-365)
T1 construct: also called human IL-6R
T1 sequence: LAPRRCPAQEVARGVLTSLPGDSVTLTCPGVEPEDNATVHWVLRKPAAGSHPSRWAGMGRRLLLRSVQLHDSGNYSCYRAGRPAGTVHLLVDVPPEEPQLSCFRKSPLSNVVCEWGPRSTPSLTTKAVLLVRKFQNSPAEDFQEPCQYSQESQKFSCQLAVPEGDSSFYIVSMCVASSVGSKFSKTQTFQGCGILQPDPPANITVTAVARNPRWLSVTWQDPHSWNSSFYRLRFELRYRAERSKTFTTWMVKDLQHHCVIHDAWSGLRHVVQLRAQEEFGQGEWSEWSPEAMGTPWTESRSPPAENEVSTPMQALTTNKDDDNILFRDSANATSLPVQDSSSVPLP
Test: SPR (BIAcore 3000), antibody on chip, sIL-6R analyte, 25 C
readout.type: Relative Affinity

27# (antibody, human IgG1, kappa, V domains shown, also called Sample # 27) VH: QVQLQESGPGLVRPSQTLSLTCTVSGYSITSDHAWSWVRQPPGRGLEWIGFISYSGMTTYNPSLKSRVTMLRDTSKNQFSLRLSSVTAADTAVYYCARSLARATAMDYWGQGSLVTVSS VL: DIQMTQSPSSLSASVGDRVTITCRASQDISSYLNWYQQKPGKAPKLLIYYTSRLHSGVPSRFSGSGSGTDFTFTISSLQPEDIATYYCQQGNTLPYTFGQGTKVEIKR	13.6 fold vs 25 (Tocilizumab)
12# (antibody, human IgG1, kappa, V domains shown, also called Sample # 12) VH: QVQLQESGPGLVRPSQTLSLTCTVSGYSITSDHAWSWVRQPPGRGLEWIGFISYSGITTYNPSLKSRVTMLRDTSKNQFSLRLSSVTAADTAVYYCARCLARATAMDYWGQGSLVTVSS VL: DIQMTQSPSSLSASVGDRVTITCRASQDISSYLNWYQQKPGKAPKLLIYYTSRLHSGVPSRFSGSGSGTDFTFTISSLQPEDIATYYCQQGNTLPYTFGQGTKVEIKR	4.1 fold vs 25 (Tocilizumab)

Value of measured Relative Affinity for the entry 28# (antibody, human IgG1, kappa, V domains shown, also called Sample # 28) VH: QVQLQESGPGLVRPSQTLSLTCTVSGYSITSDHAWSWVRQPPGRGLEWIGFISYSGMTTYNPSLKSRVTMLRDTSKNQFSLRLSSVTAADTAVYYCARSLARTTAMDYWGQGSLVTVSS VL: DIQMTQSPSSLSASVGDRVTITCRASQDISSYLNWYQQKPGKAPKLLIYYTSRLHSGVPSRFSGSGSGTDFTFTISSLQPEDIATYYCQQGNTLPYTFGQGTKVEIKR : 4.2 fold vs 25 (Tocilizumab)

Lab book: Relative Affinity of 14# (antibody, human IgG1, kappa, V domains shown, also called Sample # 14) VH: QVQLQESGPGLVRPSQTLSLTCTVSGYSITSDHAWSWVRQPPGRGLEWIGFISYSGITTYNPSLKSRVTMLRDTSKNQFSLRLSSVTAADTAVYYCARSLARITAMDYWGQGSLVTVSS VL: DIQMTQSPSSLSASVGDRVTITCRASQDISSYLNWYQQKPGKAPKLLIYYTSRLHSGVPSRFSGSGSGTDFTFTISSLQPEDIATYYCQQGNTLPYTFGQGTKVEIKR noted as 6.6 fold vs 25 (Tocilizumab)

Memo: 24# (antibody, human IgG1, kappa, V domains shown, also called Sample # 24) VH: QVQLQESGPGLVRPSQTLSLTCTVSGYSITSDHAWSWVRQPPGRGLEWIGYISYSGITTYNPSLKSRVTMLRDTSKNQFSLRLSSVTAADTAVYYCARCLARITAMDYWGQGSLVTVSS VL: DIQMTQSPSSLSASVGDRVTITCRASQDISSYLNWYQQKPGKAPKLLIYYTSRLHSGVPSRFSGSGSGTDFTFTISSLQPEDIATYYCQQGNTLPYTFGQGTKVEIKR , reported Relative Affinity: 5.4 fold vs 25 (Tocilizumab)
